assay.endpoint: melting point

The compound identified as CCCCCCCCCCCCC=CCCC(Cl)CC1CC(=O)N(N(c2ccccc2)c2[nH]n(-c3c(Cl)cc(Cl)cc3Cl)c(=O)c2OC(=O)c2cc([N+](=O)[O-])ccc2N)C1=O (stereo not drawn) registered its melting point at 118 to 121 °C

The compound identified as O=C(Nc1ccc(N2CCNCC2)cc1)c1ccccc1-c1ccccc1 registered its melting point at 176 °C

The compound identified as COc1cc(OC)c(/C=C/C(c2ccc(OC)c(OC)c2OC)S(=O)(=O)C(/C=C/c2c(OC)cc(OC)cc2OC)c2ccc(OC)c(OC)c2OC)c(OC)c1 (stereo not drawn) registered its melting point at 94 to 96 °C

====

Please provide measured melting point for the entries that follow.
Residues, ends and D or L forms follow the SMILES beside them. *: point of attachment. Cbz = O=C(OCc1ccccc1)*

The compound identified as CC1=C(CC(=O)O)c2cc(C#N)ccc2C1=Cc1ccc(S(C)=O)cc1 (configuration not stated) registered its melting point at 160 to 165 °C

The compound identified as CCCCCCCCCCCCCCCCCCCCCCCCCC(=O)NC(COC1OC(CO)C(O)C(O)C1O)C(O)C(O)CCCCCCCCCCCCCC (configuration not stated) registered its melting point at 190 °C

The compound identified as Oc1ccccc1N1CCOCC1 registered its melting point at 128 °C

The compound identified as N=C(NC(=O)OCc1ccccc1)N(CCCC(NC(=O)C(Cc1ccccc1)NC(=O)c1ccccc1)C(=O)Oc1cccc2ccccc12)C(=O)OCc1ccccc1 (configuration not stated) registered its melting point at 177 to 185 °C

The compound identified as CCCCC(CC)C(=O)Cl (configuration not stated) registered its melting point at < -75 °C

The compound identified as CCOC(=O)C(C)OC1C(Cl)=C(OC2=C(Cl)C(OC(C)C(=O)OCC)C(c3ccccc3C(F)(F)F)([N+](=O)[O-])C=C2)C=CC1(c1ccccc1C(F)(F)F)[N+](=O)[O-] (configuration not stated) registered its melting point at 71 to 74 °C

The compound identified as FC(F)(F)C(F)(F)C(F)(F)C(F)(F)C(F)(F)C(F)(F)CCc1ccc(P(c2ccccc2)c2ccc(CCC(F)(F)C(F)(F)C(F)(F)C(F)(F)C(F)(F)C(F)(F)F)cc2)cc1 registered its melting point at 42.1 to 43.1 °C

The compound identified as CCCCCCCCCCCCCCCCCCOC(=O)CCSCc1c(C)c(O)c(C)c(CSCCC(=O)OCCCCCCCCCCCCCCCCCC)c1C registered its melting point at 66 to 70 °C

The compound identified as CC(C)[C@H](NC(=O)N(C)Cc1ccccn1)C(=O)N[C@@H](Cc1ccccc1)C[C@H](OC(=O)CN(C)C)[C@H](Cc1ccccc1)NC(=O)[C@@H](NC(=O)N(C)Cc1ccccn1)C(C)C registered its melting point at 109 to 111 °C

The compound identified as O=S(=O)(C(/C=C/c1c(F)c(F)c(F)c(F)c1F)c1c(F)c(F)c(F)c(F)c1F)C(/C=C/c1c(F)c(F)c(F)c(F)c1F)c1c(F)c(F)c(F)c(F)c1F (configuration not stated) registered its melting point at 137 to 139 °C

The compound identified as CCCCCCCCCCOc1cc2c3cc(OCCCCCCCCCC)c(OCCCCCCCCCC)cc3c3c(OC)ccc(OC)c3c2cc1OCCCCCCCCCC registered its melting point at 69 to 70 °C

The compound identified as CCC(C)C1NC(=O)C(CC(C)C)NC(=O)C2CCCN2C(=O)C(C(C)C)NC(=O)C(Cc2ccc(O)cc2)NC(=O)C2CCCN2C(=O)C2CCCN2C(=O)C(C(C)CC)NC1=O (configuration not stated) (cyclo(IIPPYVPL); configuration not given here) registered its melting point at 180 to 182 °C

The compound identified as CC(=O)Nc1cc(COC2OC(COC(=O)c3ccc(Cl)cc3)C(OC3OC4COC(c5ccccc5)OC4C(OC(C)=O)C3OC(C)=O)C(OC(C)=O)C2OC(C)=O)ccc1Cl (configuration not stated) registered its melting point at 114 to 115 °C

The compound identified as O=Cc1ccc(OC(F)F)c(O)c1 registered its melting point at 82 to 83 °C

The compound identified as COc1cccc2c1CC[C@@H](C(=O)O)C2 registered its melting point at 150 to 152 °C

The compound identified as COc1cc(NC(=O)N2CCCC2)c(S(C)(=N)=O)cc1OC (configuration not stated) registered its melting point at 312 to 314 °C

The compound identified as CCCSC(=O)c1ccc([Si](CCC(F)(F)C(F)(F)C(F)(F)C(F)(F)C(F)(F)C(F)(F)C(F)(F)C(F)(F)C(F)(F)C(F)(F)F)(CCC(F)(F)C(F)(F)C(F)(F)C(F)(F)C(F)(F)C(F)(F)C(F)(F)C(F)(F)C(F)(F)C(F)(F)F)CCC(F)(F)C(F)(F)C(F)(F)C(F)(F)C(F)(F)C(F)(F)C(F)(F)C(F)(F)C(F)(F)C(F)(F)F)cc1 registered its melting point at 69 to 71 °C

The compound identified as CCCCC(CC)COc1cc2c3cc(OCC(CC)CCCC)c(OCC(CC)CCCC)cc3c3c(OC)ccc(OC)c3c2cc1OCC(CC)CCCC (configuration not stated) registered its melting point at 54 to 56 °C

The compound identified as CS(C)(=O)=NC(=O)c1cc(O)ccc1[N+](=O)[O-] registered its melting point at 146 to 149 °C

The compound identified as COc1cc(OC)c(/C=C/C(c2ccc(OC)c(NC(=O)C(C)(C)OC(C)=O)c2)S(=O)(=O)C(/C=C/c2c(OC)cc(OC)cc2OC)c2ccc(OC)c(NC(=O)C(C)(C)OC(C)=O)c2)c(OC)c1 (configuration not stated) registered its melting point at 148 to 150 °C

The compound identified as O=C(OCCCCCCOC1CCCCO1)c1ccc(Oc2c3c(c(Oc4ccc(C(=O)OCCCCCCOC5CCCCO5)cc4)c4ccccc24)C(=O)c2ccccc2C3=O)cc1 (configuration not stated) registered its melting point at 114 to 117 °C

The compound identified as Cc1ccc(Cl)cc1C(N)=NO registered its melting point at 111 to 113 °C

The compound identified as COC(=O)C(CC(C)C)NC(=O)C(Cc1ccccc1)NC(=O)C(Cc1ccc(O)cc1)NC(=O)C(CO)NC(=O)C(Cc1c[nH]c2ccccc12)NC(=O)OCc1ccccc1 (configuration not stated) (Cbz-WSYFL-OMe; configuration not given here) registered its melting point at 221 to 223 °C

The compound identified as N=S(=O)(c1ccccc1)c1cccs1 (configuration not stated) registered its melting point at 133 °C

The compound identified as C=CC(=O)OCCCCCCOc1ccc(C(=O)Oc2ccc(OC(=O)c3ccc(OCCCCCCOC(=O)C=C)cc3)c(C(=O)OCCCCCCCCOc3ccc(C#N)cc3)c2)cc1 registered its melting point at 54.5 °C

The compound identified as O=P(O)(O)CN(CP(=O)(O)O)CP(=O)(O)O registered its melting point at 215 °C

The compound identified as ON=C(Cl)c1ccc(Cl)cc1 registered its melting point at 87.5 °C

====

assay.endpoint: melting point

The molecule identified as [C-]#[N+]C1(C)Cc2ccccc2C(=C)c2ccccc21 (stereo not drawn) registered its melting point at 146 to 148 °C

The molecule identified as O=C(O)CN1CCN(CC(=O)O)CCN(CC(=O)Nc2c(I)cc(I)c(C(=O)O)c2I)CCN(CC(=O)O)CC1 registered its melting point at 235 °C

The molecule identified as O=C(O)c1ccccc1Oc1ccc(C(F)(F)F)cc1N(S(=O)(=O)c1cc(C(F)(F)F)cc(C(F)(F)F)c1)S(=O)(=O)c1cc(C(F)(F)F)cc(C(F)(F)F)c1 registered its melting point at 204 to 205 °C

The molecule identified as O=c1c(CCCc2cccnc2)cc2cccnc2n1-c1cccc([N+](=O)[O-])c1 registered its melting point at 172 to 173 °C

The molecule identified as C=C(C)C(=O)OCCCCCCCCCCCOc1ccc(-c2nc(-c3ccc(OCCCCCCCCCCCOC(=O)C(=C)C)cc3O)nc(-c3ccc(OCCCCCCCCCCCOC(=O)C(=C)C)cc3O)n2)c(O)c1 registered its melting point at 60.2 °C

The molecule identified as COC(=O)[C@H](CC(C)C)NC(=O)CNC(=O)[C@H](Cc1ccc(O)cc1)NC(=O)[C@H](CO)NC(=O)[C@H](Cc1c[nH]c2ccccc12)NC(=O)[C@H](Cc1c[nH]cn1)NC(=O)[C@@H]1CCC(=O)N1 registered its melting point at 213 to 215 °C

The molecule identified as CC(=O)OC1C(=O)C2(C)C(O)CC3OCC3(OC(C)=O)C2C(OC(=O)c2ccccc2)C2(O)CC(OC(=O)C(OC(=O)CCC(=O)O)C(NC(=O)c3ccccc3)c3ccccc3)C(C)=C1C2(C)C (stereo not drawn) registered its melting point at 178 to 180 °C

The molecule identified as NC(=NC(=O)OCc1ccc([N+](=O)[O-])cc1)N(CCSSCCN(C(=O)OCc1ccc([N+](=O)[O-])cc1)C(N)=NC(=O)OCc1ccc([N+](=O)[O-])cc1)C(=O)OCc1ccc([N+](=O)[O-])cc1 registered its melting point at 165 °C

The molecule identified as CCCCCCCCCCCCc1c2c(c(CCCCCCCCCCCC)c3c1-c1ccc(Br)cc1C3=C(C#N)C#N)-c1ccc(Br)cc1C2=C(C#N)C#N registered its melting point at 136 to 137 °C

The molecule identified as CC(C)[C@H](NC(=O)N(C)Cc1csc(N)n1)C(=O)N[C@@H](Cc1ccccc1)[C@H](O)[C@@H](O)[C@H](Cc1ccccc1)NC(=O)[C@@H](NC(=O)N(C)Cc1nccs1)C(C)C registered its melting point at 108 to 111 °C

The molecule identified as CC(C)COc1c(-c2ccc(S(N)(=O)=O)c(F)c2)cnn(-c2cccc(Cl)c2)c1=O registered its melting point at 157 to 159 °C

The molecule identified as CCCCC(CC)CN1C(=O)C(=c2[nH]c(=c3[nH]c(=C4C(=O)N(CC(CC)CCCC)C(=O)N(CC(CC)CCCC)C4=O)c4ccccc34)c3ccccc23)C(=O)N(CC(CC)CCCC)C1=O (stereo not drawn) registered its melting point at 198 to 206 °C

The molecule identified as CC(CC(CC(Sc1cc(C(C)(C)C)c(O)c(C(C)(C)C)c1)Sc1cc(C(C)(C)C)c(O)c(C(C)(C)C)c1)Sc1cc(C(C)(C)C)c(O)c(C(C)(C)C)c1)Sc1cc(C(C)(C)C)c(O)c(C(C)(C)C)c1 (stereo not drawn) registered its melting point at 160 to 162 °C

The molecule identified as CC12CC3CC(C)(C1)CC(N)(C3)C2 registered its melting point at 153 °C

The molecule identified as CCOC(=O)c1cnc2snc(C)c2c1N(C)S(=O)(=O)c1ccc(Oc2ccncc2)cc1 registered its melting point at 57 to 60 °C

The molecule identified as CC(=O)OCC1OC(n2cc(C3=C(c4cn(S(=O)(=O)c5ccccc5)c5ncccc45)C(=O)N(COCc4ccccc4)C3=O)c3cccnc32)C(OC(C)=O)C(OC(C)=O)C1OC(C)=O (stereo not drawn) registered its melting point at 108 to 110 °C

The molecule identified as Cc1ccc2cccc(OCc3c(Cl)ccc(S(=O)(=O)N4CCC[C@H]4C(=O)NC4CCN(C(=O)CCN(C=NC(=O)OC(C)(C)C)NC(=O)OC(C)(C)C)CC4)c3Cl)c2n1 registered its melting point at 112 °C

The molecule identified as C=CCOC1OC(CO)C(O)C(OC(=O)CC(CCCCCCCCCCC)OC(=O)CCCCCCCCCCCCC)C1NC(=O)OCC(Cl)(Cl)Cl (stereo not drawn) registered its melting point at 68 to 70 °C

The molecule identified as CC(C)CCCC(C)C1CCC2C3CC=C4CC(NCCCNC(=O)CCNC(=O)CCNC(=O)CCCCCNc5ccc([N+](=O)[O-])cc5[N+](=O)[O-])CCC4(C)C3CCC12C (stereo not drawn) registered its melting point at 118 to 119 °C

The molecule identified as CCNC(=O)[C@@H]1CCCN1C(=O)[C@H](CCCNC(=N)N)NC(=O)[C@H](CC(C)C)NC(=O)[C@@H](Cc1ccc2ccccc2c1)NC(=O)[C@H](Cc1ccc(O)cc1)NC(=O)[C@H](CO)NC(=O)[C@H](Cc1c[nH]c2ccccc12)NC(=O)[C@H](Cc1c[nH]cn1)NC(=O)[C@@H]1CCC(=O)N1 registered its melting point at 180 to 190 °C

The molecule identified as CCCCCCCCCCCCS(=O)(=O)c1c(S(=O)(=O)CCCCCCCCCCCC)c(S(=O)(=O)CCCCCCCCCCCC)c(S(=O)(=O)CCCCCCCCCCCC)c(S(=O)(=O)CCCCCCCCCCCC)c1S(=O)(=O)CCCCCCCCCCCC registered its melting point at 60 °C

The molecule identified as CS(=O)(=O)c1ccc(-c2nc(C(F)(F)F)nc(N3CCN(C(=O)c4cccs4)CC3)c2-c2ccccc2)cc1 registered its melting point at 189 to 194 °C

The molecule identified as CCc1nc(OC)c(NC(=O)N2CCN(c3cc(OC)c(OC)c(OC)c3)CC2)cc1C(=O)NC(C)C(=O)Nc1cc(CO)cc(Nc2c3ccccc3nc3ccccc23)c1 (stereo not drawn) registered its melting point at 205 to 207 °C

Source listed as a melting point compilation (Tetko et al.).
